- target_or_system: T1, alphaVbeta3 integrin, native human, on rhabdomyosarcoma (RD) cells and on human umbilical vein endothelial … (human, UniProt P06756 31-1048; P05106 27-788)
- T1 construct: whole, on cells; also called αVβ3; native human β3
- T1 sequence (P06756 31-1048, chain 1 of 2): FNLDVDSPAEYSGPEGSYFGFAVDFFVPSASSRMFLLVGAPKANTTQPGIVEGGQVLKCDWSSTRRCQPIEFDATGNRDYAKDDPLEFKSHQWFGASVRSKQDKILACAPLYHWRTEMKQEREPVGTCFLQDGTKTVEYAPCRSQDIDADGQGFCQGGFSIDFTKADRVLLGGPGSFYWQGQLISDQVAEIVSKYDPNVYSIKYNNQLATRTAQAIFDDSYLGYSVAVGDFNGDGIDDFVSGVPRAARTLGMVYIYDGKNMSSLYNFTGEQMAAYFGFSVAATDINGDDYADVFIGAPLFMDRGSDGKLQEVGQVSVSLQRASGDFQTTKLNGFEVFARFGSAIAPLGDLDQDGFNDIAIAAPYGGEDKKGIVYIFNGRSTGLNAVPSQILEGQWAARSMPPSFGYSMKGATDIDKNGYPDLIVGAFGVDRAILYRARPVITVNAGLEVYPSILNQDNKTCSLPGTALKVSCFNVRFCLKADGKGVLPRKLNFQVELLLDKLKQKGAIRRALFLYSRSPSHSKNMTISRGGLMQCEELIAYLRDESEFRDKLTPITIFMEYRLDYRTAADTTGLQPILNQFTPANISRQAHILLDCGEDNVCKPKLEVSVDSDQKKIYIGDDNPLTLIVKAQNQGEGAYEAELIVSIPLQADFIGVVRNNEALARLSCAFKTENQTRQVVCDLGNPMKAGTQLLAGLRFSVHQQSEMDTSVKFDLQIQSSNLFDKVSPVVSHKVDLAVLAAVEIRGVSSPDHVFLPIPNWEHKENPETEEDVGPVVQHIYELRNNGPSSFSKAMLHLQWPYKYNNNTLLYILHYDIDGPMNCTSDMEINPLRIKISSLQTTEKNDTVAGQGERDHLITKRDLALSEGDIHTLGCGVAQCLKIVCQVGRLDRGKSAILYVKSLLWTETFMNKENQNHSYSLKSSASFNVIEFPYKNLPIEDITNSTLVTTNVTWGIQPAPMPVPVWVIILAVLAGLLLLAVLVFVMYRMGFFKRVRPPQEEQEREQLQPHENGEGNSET
- T1 sequence (P05106 27-788, chain 2 of 2): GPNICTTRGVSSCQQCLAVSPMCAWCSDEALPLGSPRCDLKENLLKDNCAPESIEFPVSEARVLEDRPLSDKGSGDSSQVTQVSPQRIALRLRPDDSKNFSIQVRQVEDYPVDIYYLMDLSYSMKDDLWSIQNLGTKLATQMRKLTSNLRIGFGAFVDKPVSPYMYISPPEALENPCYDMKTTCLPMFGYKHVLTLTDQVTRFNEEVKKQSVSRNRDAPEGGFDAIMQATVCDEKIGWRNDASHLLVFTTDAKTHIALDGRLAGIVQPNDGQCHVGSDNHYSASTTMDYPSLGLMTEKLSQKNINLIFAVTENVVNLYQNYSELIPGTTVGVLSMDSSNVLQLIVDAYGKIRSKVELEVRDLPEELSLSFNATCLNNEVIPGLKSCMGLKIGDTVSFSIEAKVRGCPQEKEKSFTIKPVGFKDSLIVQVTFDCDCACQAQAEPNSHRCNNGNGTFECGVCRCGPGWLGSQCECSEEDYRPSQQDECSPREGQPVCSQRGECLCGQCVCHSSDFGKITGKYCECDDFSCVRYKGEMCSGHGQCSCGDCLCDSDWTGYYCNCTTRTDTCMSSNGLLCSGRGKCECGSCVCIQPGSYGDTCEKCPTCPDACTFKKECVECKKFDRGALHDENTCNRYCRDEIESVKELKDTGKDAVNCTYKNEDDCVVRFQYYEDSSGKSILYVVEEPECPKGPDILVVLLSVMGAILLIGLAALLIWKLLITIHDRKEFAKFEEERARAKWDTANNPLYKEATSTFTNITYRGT
- test: flow cytometry on RD cells expressing alphaVbeta3, PE anti-human IgG; EC50 = concentration where 50% of cells gated in R2
pEC50: −log10 of the molar value.
Parameter: pEC50. Scope: all listed entries.

{"binder": "VH3/Vκ3 Composite Human Antibody variant of HLMC (antibody, human IgG1, kappa, V domains shown, also called VH3/Vk3) VH: QAQLVQSGAEVKKPGASVKVSCKASGYLFSNSWMNWVKQRRGAGLEWIGRIFPGDGDTNYNGKFKGRATITADKSTSTAYMELSSLRSEDTAVYFCARWGLTRDRRLYLDYWGQGTTVTVSS VL: DIVMTQSPDSLAVSLGERATINCKSSQSLLYSSNQKNYLAWYQQKPGQAPRLLIYWASTRESGVPDRFSGSGSGTDFTLTISSLQAEDVAVYYCKQYYTYPLTFGQGTKLEIKR", "pEC50": 8.50}
{"binder": "VH3/Vκ2 Composite Human Antibody variant of HLMC (antibody, human IgG1, kappa, V domains shown, also called VH3/Vk2) VH: QAQLVQSGAEVKKPGASVKVSCKASGYLFSNSWMNWVKQRRGAGLEWIGRIFPGDGDTNYNGKFKGRATITADKSTSTAYMELSSLRSEDTAVYFCARWGLTRDRRLYLDYWGQGTTVTVSS VL: DIVMTQSPDSLAVSLGERATINCKSSQSLLYSSNQKNYLAWYQQKPGQAPRLLIYWASTRESGVPDRFTGSGSGTDFTLTISSLQAEDVAVYYCKQYYTYPLTFGQGTKLEIKR", "pEC50": 7.32}
{"binder": "VH5/Vκ3 Composite Human Antibody variant of HLMC (antibody, human IgG1, kappa, V domains shown, also called VH5/Vk3) VH: QAQLVQSGAEVKKPGASVKVSCKASGYLFSNSWMNWVKQRRGAGLEWIGRIFPGDGDTNYNGKFKGRVTITADKSTSTAYMELSSLRSEDTAVYYCARWGLTRDRRLYLDYWGQGTTVTVSS VL: DIVMTQSPDSLAVSLGERATINCKSSQSLLYSSNQKNYLAWYQQKPGQAPRLLIYWASTRESGVPDRFSGSGSGTDFTLTISSLQAEDVAVYYCKQYYTYPLTFGQGTKLEIKR", "pEC50": 8.50}

All figures here come from patent US20150259422A1.
